Listed below: kon values for each entry.
- target system: T1, Cynomolgus monkey CD98 ECD with C-terminal His-tag (cynomolgus monkey, UniProt P08195 105-529 (human entry))
- T1 construct: also called cyCD98 ECD; recombinant cynomolgus monkey CD98 extracellular domain
- T1 chain: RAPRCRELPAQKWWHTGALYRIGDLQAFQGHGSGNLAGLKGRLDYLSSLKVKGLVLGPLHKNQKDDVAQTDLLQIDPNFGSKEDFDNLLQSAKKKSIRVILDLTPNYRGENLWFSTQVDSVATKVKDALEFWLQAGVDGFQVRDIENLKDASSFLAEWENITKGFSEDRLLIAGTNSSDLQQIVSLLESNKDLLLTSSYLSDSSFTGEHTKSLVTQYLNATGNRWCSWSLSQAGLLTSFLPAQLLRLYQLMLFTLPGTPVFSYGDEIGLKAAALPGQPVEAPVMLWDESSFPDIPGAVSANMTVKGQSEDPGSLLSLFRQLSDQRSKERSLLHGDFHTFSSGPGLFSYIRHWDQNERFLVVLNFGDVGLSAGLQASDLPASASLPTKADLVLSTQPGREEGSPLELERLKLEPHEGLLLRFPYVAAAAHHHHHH
- assay procedure: SPR Biacore, anti-Fc capture of mAb, CD98 ECD analyte
Numbers only here, please. The scale is M⁻¹ s⁻¹.

Would you please look over these solved cases?
- binder: "Recombinant anti-CD98 chimeric antibody chAb15 (antibody, human IgG1, V domains shown) VH: EVQLVESGGGLVQPGRSLKLSCAASGFTFSDYTMAWVRQAPKKGLEWVATIIYDGRGTYYRDSVKGRFTISRDNAKSTLYLQMDSLRSEDTATYYCARQSDGTYYYWGYFDYWGQGVMVTVSS VL: DIVMTQSPSSLAVSAGETVTINCKSSQSLLFSGNQKNYLAWYQQKPGQSPKLLIYWASTRQSGVPDRFIGSGSGTDFTLTIRSVQAEDLAIYYCQQYYDSPYTFGAGTKLELK"
  value type: "kon"
  recorded number: 20000
- binder: "Recombinant anti-CD98 chimeric antibody chAb9 (antibody, human IgG1, V domains shown) VH: QVQLKESGPGLVQPSQTLSLTCAVSGFSLSNYGVIWVRQPPGKGLEWMAVIWTNGNTNYNSTLKSRLSISRDTSKSQVYLKMNSLQTEDTATYYCARHYYDGTYYYGYFDYWGQGVMVTVSS VL: DIVMTQTPSSQAVSAGEKVTMSCKSSQSLLYTENKKNYLAWYQQKPGQSPKLLIYWASTRESGVPDRFMGSGSGTDFTLTISSVQAEDLAVYYCQQYYYFPYMFGAGTKLELK"
  value type: "kon"
  recorded number: 33000

Query binder follows.
Lookup: Tell us which kon value is on record for Recombinant anti-CD98 chimeric antibody chAb1 (antibody, human IgG1, V domains shown) VH: EVKLVESGGGLVQPGGSLRLSCATSGFTFTDYYMSWVRQPPGKALEWLGFIRNPANVYTTEYSASVKGRFTISRDNSQSILYLQMNTLRAEDSATYYCARASYGNSEGWFAYWGQGTLVTVSA VL: DIVMSQSPSSLAVSVGEKVTMSCKSSQNLLYNNNQKNYLAWYQQKPGQSPKLLIYWASTRESGVPDRFTGSGSGTDFTLTISSVKAEDLAVYYCQQYYSYPRTFGGGTKLEIK
Found: 28000
